The reported measurements were obtained from patent US10596270B2.

- Assay Method Text: Pharmacokinetics of free drugs in Sprague-Dawley rats
- Type: in vivo, rat
- Condition Label: rat, blood; female Sprague-Dawley rats, IV bolus, dose level 0.4 mg/kg; read-out: VSS
Assay Readout: Vd

[
  {
    "Compound": "COc1cc2cc(c1Cl)N(C)C(=O)C[C@H](OC(=O)[C@H](C)N(C)C(=O)CCC(C)(C)S)[C@]1(C)O[C@H]1[C@H](C)[C@@H]1C[C@@](O)(NC(=O)O1)[C@H](OC)/C=C/C=C(/C)C2 [free drug (II)]",
    "Reading": "44.1 L/kg"
  }
]

###

- Tested on: P-glycoprotein (PgP)
- Assay Method Text: Free drug cell killing on PgP over-expressing MES-SA/MX2 cells with or without PgP inhibitor GF120918
- Format: cell-based
- Condition Label: human, MES-SA/MX2 cells (PgP over-expressing), with GF120918 (5 μM); MEA-SA/MX2 cells, with PgP inhibitor GF120918 (5 μM)
pEC50: −log10 of the molar value.
The entries below come with measured pEC50 values attached.

[
  {
    "Molecule": "COc1cc2cc(c1Cl)N(C)C(=O)C[C@H](OC(=O)[C@H](C)N(C)C(=O)CCC(C)(C)S)[C@]1(C)O[C@H]1[C@H](C)[C@@H]1C[C@@](O)(NC(=O)O1)[C@H](OC)/C=C/C=C(/C)C2 [free drug (II)]",
    "pEC50": 8.77
  },
  {
    "Molecule": "CN[C@H](C(=O)N[C@H](C(=O)N(C)[C@H](/C=C(\\C)C(=O)O)C(C)C)C(C)(C)C)C(C)(C)c1cccc(N)c1 [free drug (I)]",
    "pEC50": 8.19
  }
]
